- Assay Remarks: Aging promotion testing: sunlight 30 min / fading one hour cycles, 10 days (durability, coloring degree)
- Assay type: physicochemical
- Settings: chromene composition, or other chromene C1-C4, 10 days aging; Table 6
Listed here are molecules together with their documented Change in the coloring degree ΔYI.
Endpoint Name: Change in the coloring degree ΔYI

[[record]]
molecule = "C1=CC(c2ccccc2)(c2ccccc2)Oc2ccc3ccccc3c21 [Compound C4, 3,3-Diphenyl-3H-benzo(f)chromene, reference compound]"
endpoint_name = "Change in the coloring degree ΔYI"
val = 5.0

[[record]]
molecule = "C1=CC2(CC3CCC2C3)Oc2c1ccc1ccccc21 (stereo not shown) [Compound C1, reference compound]"
endpoint_name = "Change in the coloring degree ΔYI"
val = 2.0

[[record]]
molecule = "Cc1c2c(c3ccccc3c1C)OC(c1ccccc1)(c1ccccc1)C=C2 [Compound C3, reference compound]"
endpoint_name = "Change in the coloring degree ΔYI"
val = 5.0

[[record]]
molecule = "CCOC(=O)c1c2c(c3ccccc3c1C)OC(c1ccccc1)(c1ccccc1)C=C2 [Compound C2, reference compound]"
endpoint_name = "Change in the coloring degree ΔYI"
val = 4.0


FYI, the data here is from patent US6197225A.
